// provenance: the supplement of paper PMC7877785

# procedure summary: self-splicing fitness, log relative to wild type (ln ratio); higher = more splicing; Tetrahymena group I intron in knt gene, E. coli kanamycin selection, DiMSum; sequences stand for … in CUCUCU…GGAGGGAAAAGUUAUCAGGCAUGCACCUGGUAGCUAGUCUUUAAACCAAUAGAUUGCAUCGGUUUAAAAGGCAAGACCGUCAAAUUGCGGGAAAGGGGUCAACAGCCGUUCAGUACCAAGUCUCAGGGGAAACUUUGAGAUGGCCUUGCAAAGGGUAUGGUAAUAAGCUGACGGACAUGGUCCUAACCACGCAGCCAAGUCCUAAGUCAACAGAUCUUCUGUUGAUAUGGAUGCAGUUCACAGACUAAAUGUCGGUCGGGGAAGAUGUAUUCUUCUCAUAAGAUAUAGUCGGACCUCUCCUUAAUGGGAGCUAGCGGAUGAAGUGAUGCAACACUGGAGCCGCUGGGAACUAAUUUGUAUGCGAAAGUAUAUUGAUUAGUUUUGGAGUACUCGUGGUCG;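 also: selection with 25 µg/mL kanamycin versus none on LB agar overnight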
# experimental conditions: 30 °C
readout: self-splicing fitness (ln)
# respond with the number and nothing more

I have this sequence here, `AUGCAGCAAUAUUACGUUCU` , and I need its recorded self-splicing fitness (ln). -0.207

Data request, read-out self-splicing fitness (ln), for `CAUAAGCAAUAUUACGUGUG` -3.56

May I ask what self-splicing fitness (ln) has been recorded for `GAGUAGCAAUAUUACGACCG` ? -3.1

Which self-splicing fitness (ln) reading was recorded for the sequence `UCAAAGCAAUAUUACGGAAC` ? -4.3

====

What self-splicing fitness (ln) was measured for each of the following?
# procedure summary: self-splicing fitness, log relative to wild type (ln ratio); higher = more splicing; Tetrahymena group I intron in knt gene, E. coli kanamycin selection, DiMSum; sequences stand for … in CUCUCU…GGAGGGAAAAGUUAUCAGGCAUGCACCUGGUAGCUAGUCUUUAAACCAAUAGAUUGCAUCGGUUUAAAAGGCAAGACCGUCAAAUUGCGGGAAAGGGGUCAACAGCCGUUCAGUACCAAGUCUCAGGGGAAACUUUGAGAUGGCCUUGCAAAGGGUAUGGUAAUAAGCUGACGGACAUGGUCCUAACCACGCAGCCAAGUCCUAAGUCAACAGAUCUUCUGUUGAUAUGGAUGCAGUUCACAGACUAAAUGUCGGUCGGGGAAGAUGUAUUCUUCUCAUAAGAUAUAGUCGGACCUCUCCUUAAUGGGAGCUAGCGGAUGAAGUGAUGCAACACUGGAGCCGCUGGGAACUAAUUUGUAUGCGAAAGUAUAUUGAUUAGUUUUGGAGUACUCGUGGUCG
# experimental conditions: 37 °C

Look up self-splicing fitness (ln) for this sequence: `CAAUAGCAAUAUUACGGAGG` -1.26

Fill in: self-splicing fitness (ln) of `CAUGAGCAAUAUUACGUACU` is ___ -2.59

For the sequence `CGCUAGCAAUAUUACGCUUU` , what self-splicing fitness (ln) is on record? -2.32

Tell me the measured self-splicing fitness (ln) of `UAGAAGCAAUAUUACGUCAU` , please. -1.99

Query (sequence): `GAGUAGCAAUAUUACGUCCA` ; field requested: self-splicing fitness (ln) -0.346

What value of measured self-splicing fitness (ln) is listed for `UGCAAGCAAUAUUACGGAUG` ? -0.565

For the sequence shown here, `AGAAAGCAAUAUUACGAAUA` , give the reported self-splicing fitness (ln). -0.949

Could you tell me which self-splicing fitness (ln) is on file for `GUUCAGCAAUAUUACGACCU` ? 0.115

So what does the record say about self-splicing fitness (ln) for `UUUCAGCAAUAUUACGGGAC` ? -1.4

What does the record list as self-splicing fitness (ln) for `GGCUAGCAAUAUUACGCUUA` ? -0.117

Would you kindly share the measured self-splicing fitness (ln) for `GGUAAGCAAUAUUACGGGAC` ? -1.27

Any idea what self-splicing fitness (ln) was measured for `ACGUAGCAAUAUUACGUGCU` ? -0.828

What value of measured self-splicing fitness (ln) is listed for `UUACAGCAAUAUUACGUCGC` ? -2.55

Record request: self-splicing fitness (ln) value, item `AACCAGCAAUAUUACGAUGG` -2.76

Form field: reported self-splicing fitness (ln) of `CUACAGCAAUAUUACGGUAG` -3.06

Sample `GCCUAGCAAUAUUACGUGCA` — what was its self-splicing fitness (ln)? -0.937

Query: self-splicing fitness (ln); subject: `UAAGAGCAAUAUUACGUGUC` -0.977

Entry `UCCUAGCAAUAUUACGAUGG` : reported self-splicing fitness (ln) = ? -2.15

Quick check: self-splicing fitness (ln) of `CGUGAGCAAUAUUACGUGAU` ? -3.21

Form field: reported self-splicing fitness (ln) of `UUUGAGCAAUAUUACGCGGG` -1.45

# query: self-splicing fitness (ln) of entry `GUUGAGCAAUAUUACGUUUC` -3.1

# query: self-splicing fitness (ln) of entry `GCAUAGCAAUAUUACGUCCA` -0.447

Returns the measured self-splicing fitness (ln) for the input sequence. Input: `AUAUAGCAAUAUUACGAUAU` -1.33

Sample `UCGAAGCAAUAUUACGCCCA` — what was its self-splicing fitness (ln)? -0.793

Recorded self-splicing fitness (ln) for `GAACAGCAAUAUUACGGAUU` , please? -0.167

Item `CUGAAGCAAUAUUACGCACU` has what recorded self-splicing fitness (ln)? -1.32

Recorded self-splicing fitness (ln) of `ACUCAGCAAUAUUACGAAUU` , please. -0.208

Find the recorded self-splicing fitness (ln) belonging to `CUGUAGCAAUAUUACGGUGA` and report it. -2.28

Quick check: self-splicing fitness (ln) of `UGAAAGCAAUAUUACGUUUU` ? -3.41

Consider the sequence `GCUUAGCAAUAUUACGUAUU` and give its measured self-splicing fitness (ln). 0.669

Tell me the measured self-splicing fitness (ln) of `CCGGAGCAAUAUUACGGGGG` , please. -1.83

Entry `GACCAGCAAUAUUACGUCCG` has what self-splicing fitness (ln)? -2.12

# lookup: self-splicing fitness (ln) of `AGCCAGCAAUAUUACGAUUG` -0.923

Need self-splicing fitness (ln) of `CAAUAGCAAUAUUACGGGAG` , thanks. -2

Please look up its self-splicing fitness (ln): `CGGGAGCAAUAUUACGCUCG` -0.772

// query self-splicing fitness (ln) value for entry `AUCGAGCAAUAUUACGCUAU` -3.08

Which self-splicing fitness (ln) reading was recorded for the sequence `GUGAAGCAAUAUUACGAAGU` ? -1.05

Reported self-splicing fitness (ln), sequence `UAAAAGCAAUAUUACGCUCC` : ____ -0.325

Param item = `AGAAAGCAAUAUUACGCAAU` ; retrieve measured self-splicing fitness (ln). -0.965

Reported self-splicing fitness (ln), sequence `CUAGAGCAAUAUUACGUUUC` : ____ -2.01

I have this sequence here, `AUGAAGCAAUAUUACGCCCA` , and I need its recorded self-splicing fitness (ln). 0.0745

Fill in the blank: the reported self-splicing fitness (ln) of `UCCCAGCAAUAUUACGCUCA` is ____. -0.496

Fill in the blank: the reported self-splicing fitness (ln) of `UGAGAGCAAUAUUACGUGAA` is ____. -2.35

Dear colleague, I am looking for the recorded self-splicing fitness (ln) of the following sequence: `CUAGAGCAAUAUUACGUUGG` -0.638

Using the record for `GACUAGCAAUAUUACGACCG` , report its self-splicing fitness (ln). -0.537

Quick check: self-splicing fitness (ln) of `GAAGAGCAAUAUUACGCAGU` ? -2.38
